Catalogue of IC50 values
- study.target: UniProt:P31941
- Sequence (P31941 whole entry): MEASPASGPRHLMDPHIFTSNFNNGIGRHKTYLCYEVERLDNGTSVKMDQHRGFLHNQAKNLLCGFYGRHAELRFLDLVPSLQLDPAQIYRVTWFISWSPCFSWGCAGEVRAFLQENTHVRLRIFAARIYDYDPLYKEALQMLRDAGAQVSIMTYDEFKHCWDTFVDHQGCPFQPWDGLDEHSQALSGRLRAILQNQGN
- protocol.text: Dose Response confirmation of small molecule APOBEC3A DNA Deaminase Inhibitors via a fluorescence-based single-stranded DNA deaminase assay. [Related pubchem assays (depositor defined):AID493011, AID493024]
- Assay type: functional
Activity calls are given as the source filed them. How the calls were made is not given here.

>  <compound>
O=C1C=C(O)CC(c2ccco2)C1 (stereo unspecified)

>  <study.target>
UniProt:P31941

>  <IC50>
14 µM (active)

$$$$
>  <compound>
CCCCCCCn1ccc(=N)cc1

>  <study.target>
UniProt:P31941

>  <IC50>
1.83 µM (active)

$$$$
>  <compound>
CC[N+](CC)(CC)CCOc1ccc(/C=C/c2ccccc2)cc1 [STILONIUM IODIDE]

>  <study.target>
UniProt:P31941

>  <IC50>
2.33 µM (active)

$$$$
>  <compound>
N#Cc1ccccc1CN1C(=O)S/C(=C/c2cccn2-c2cccc(C(=O)O)c2)C1=O

>  <study.target>
UniProt:P31941

>  <IC50>
14.9 µM (active)

$$$$
>  <compound>
CC(=O)Nc1nnc(SCC(=O)NCC2CCCO2)s1 (stereo unspecified)

>  <study.target>
UniProt:P31941

>  <IC50>
38.6 µM (active)

$$$$

Now consider the entry below.
Q: Tell us which IC50 value is on record for O=C(CSc1n[nH]c(-c2ccncc2)n1)Nc1ccc(Cl)c(Cl)c1
Result: 8.81 µM (active)

The reported numbers originate from ChEMBL document CHEMBL1201862.
